- ASSAY_NOTES: Ratio of Kcat to Km for recombinant beta-lactamase RTG4 expressed in Escherichia coli TOP10 by nitrocefin hydrolysis assay
MEASURE: kcat/Km
Write the figure, then the unit, nothing else.

{"columns": ["MOLECULE", "RESULT"],
 "data": [
  ["CC1(C)S[C@@H]2[C@H](NC(=O)COc3ccccc3)C(=O)N2[C@H]1C(=O)O", "2e+06 M⁻¹ s⁻¹"],
  ["CC1(C)S[C@@H]2[C@H](NC(=O)[C@H](C(=O)O)c3ccsc3)C(=O)N2[C@H]1C(=O)O [TICARCILLIN]", "1.5e+06 M⁻¹ s⁻¹"],
  ["CCN1CCN(C(=O)N[C@@H](C(=O)N[C@@H]2C(=O)N3[C@@H]2SC(C)(C)[C@@H]3C(=O)O)c2ccccc2)C(=O)C1=O [PIPERACILLIN]", "500000 M⁻¹ s⁻¹"],
  ["CO/N=C(\\C(=O)N[C@@H]1C(=O)N2C(C(=O)[O-])=C(C[N+]3(C)CCCC3)CS[C@H]12)c1csc(N)n1", "1000 M⁻¹ s⁻¹"],
  ["CC(=O)OCC1=C(C(=O)O)N2C(=O)[C@@H](NC(=O)Cc3cccs3)[C@H]2SC1 [CEPHALOTHIN]", "6000 M⁻¹ s⁻¹"],
  ["CO/N=C(\\C(=O)N[C@@H]1C(=O)N2C(C(=O)[O-])=C(C[n+]3cccc4c3CCC4)CS[C@H]12)c1csc(N)n1 [CEFPIROME]", "500 M⁻¹ s⁻¹"]
]}

Now take the following molecule into account.
Input: I have this molecule here, CC1(C)S[C@@H]2[C@H](NC(=O)[C@H](N)c3ccc(O)cc3)C(=O)N2[C@H]1C(=O)O [AMOXICILLIN] , and I need its recorded kcat/Km.
Output: 2e+06 M⁻¹ s⁻¹

----------
- Test system: Acinetobacter baumannii
- ASSAY_NOTES: Antimicrobial activity against Acinetobacter baumannii CIP70.10 harboring beta-lactamase RTG4 gene by […]
- Format: functional
MEASURE: MIC (µg/mL)
Give bare numbers, in µg/mL.

Observe how each entry below is paired with its result.
{"columns": ["MOLECULE", "MIC [µg/mL]"],
 "data": [
  ["CO/N=C(\\C(=O)N[C@@H]1C(=O)N2C(C(=O)[O-])=C(C[N+]3(C)CCCC3)CS[C@H]12)c1csc(N)n1", 64],
  ["CC(C)(O/N=C(\\C(=O)N[C@@H]1C(=O)N2C(C(=O)[O-])=C(C[n+]3ccccc3)CS[C@H]12)c1csc(N)n1)C(=O)O [CEFTAZIDIME]", 16],
  ["CO/N=C(\\C(=O)N[C@@H]1C(=O)N2C(C(=O)[O-])=C(C[n+]3cccc4c3CCC4)CS[C@H]12)c1csc(N)n1 [CEFPIROME]", 64]
]}

Working through the 2 molecules below one at a time, give MIC for each.
1. CO/N=C(\C(=O)N[C@@H]1C(=O)N2C(C(=O)O)=C(COC(C)=O)CS[C@H]12)c1csc(N)n1 [CEFOTAXIME]
2. C[C@@H](O)[C@H]1C(=O)N2C(C(=O)O)=C(SCCNC=N)C[C@H]12 [IMIPENEM ANHYDROUS]

Output:
16
0.25

----------
Record form. Attribute: MIC. Fill in for each entry.
- Tested on: Escherichia coli
- ASSAY_NOTES: Antibacterial activity against Escherichia coli TOP10 harboring recombinant plasmid RTG4-S69-V49 by Etest method
- Format: functional
One number for each entry, in µg/mL.

Observe how each entry below is paired with its result.
{"columns": ["STRUCTURE", "SYSTEM_NAME", "UNIT_SPEC", "MIC"],
 "data": [
  ["CC(C)(O/N=C(\\C(=O)N[C@@H]1C(=O)N2C(C(=O)[O-])=C(C[n+]3ccccc3)CS[C@H]12)c1csc(N)n1)C(=O)O", "Escherichia coli", "µg/mL", 0.5],
  ["CO/N=C(\\C(=O)N[C@@H]1C(=O)N2C(C(=O)O)=C(COC(N)=O)CS[C@H]12)c1ccco1", "Escherichia coli", "µg/mL", 2],
  ["CC(=O)OCC1=C(C(=O)O)N2C(=O)[C@@H](NC(=O)Cc3cccs3)[C@H]2SC1", "Escherichia coli", "µg/mL", 8],
  ["CO/N=C(\\C(=O)N[C@@H]1C(=O)N2C(C(=O)[O-])=C(C[N+]3(C)CCCC3)CS[C@H]12)c1csc(N)n1", "Escherichia coli", "µg/mL", 0.5],
  ["CO/N=C(\\C(=O)N[C@@H]1C(=O)N2C(C(=O)[O-])=C(C[n+]3cccc4c3CCC4)CS[C@H]12)c1csc(N)n1", "Escherichia coli", "µg/mL", 0.25]
]}

Input: I have this compound here, "CO/N=C(\C(=O)N[C@@H]1C(=O)N2C(C(=O)O)=C(COC(C)=O)CS[C@H]12)c1csc(N)n1" , and I need its recorded MIC.
Output: 0.25
